experiment: Plasma pharmacokinetics in mice; format: in vivo, C57BL/6 mice; conditions: C57BL/6, mouse; IV 3 mg/kg; female; plasma; read-out: Vss

structureAsSmiles	Vd
Cc1cccc(-c2cncc(Nc3ccc(Br)c(Cl)c3Cl)n2)c1C	3.23 L/kg

###

assay: Plasma pharmacokinetics in mice; format: in vivo, C57BL/6 mice; conditions: C57BL/6, mouse; PO 10 mg/kg; female; plasma

structureAsSmiles	AUC(0-t) (ng·h/mL)
Cc1cccc(-c2cncc(Nc3ccc(Br)c(Cl)c3Cl)n2)c1C	2680

###

assay: Plasma pharmacokinetics in mice; assay type: in vivo, C57BL/6 mice; settings: C57BL/6, mouse; PO 10 mg/kg; male; plasma
metric: AUC(0-t) (ng·h/mL)

compound	metric	unitSymbol	recordedNumber
Cc1cccc(-c2cncc(Nc3ccc(Br)c(Cl)c3Cl)n2)c1C [Np75-4A22]	AUC(0-t)	ng·h/mL	4730

Origin of the recorded values: paper PMC12514245
